# melting point values compiled below

Example entries begin here.
> print(dat)
                               input.smiles   assay.metric    assay.value
1  NC(=O)Nc1ccc(Oc2ccc(-c3c[nH]c(COc4ccccc4)n3)cc2)cc1  melting point  200 to 202 °C
2  CC(C)NC(=O)Nc1ccc(Oc2ccc(-c3c[nH]c(COc4ccccc4)n3)cc2)cc1  melting point  184 to 186 °C
3  CCNC(=S)Nc1ccc(Oc2ccc(-c3c[nH]c(COc4ccccc4)n3)cc2)cc1  melting point  178 to 180 °C

// melting point lookup, key: Cc1ccc(NC(=O)Nc2ccc(Oc3ccc(-c4c[nH]c(COc5ccccc5)n4)cc3)cc2)cc1
192 to 194 °C

----------
# melting point values compiled below

> print(dat)
                               input.smiles  assay.value
1  CCCCNC(=O)Nc1ccc(Oc2ccc(-c3c[nH]c(COc4ccccc4)n3)cc2)cc1.O=C(O)C(F)(F)F  85 to 87 °C

// melting point lookup, key: CCNC(=S)Nc1ccc(Oc2ccc(-c3c[nH]c(COc4ccccc4)n3)cc2)cc1F
105 to 107 °C

What about NC(=N[N+](=O)[O-])Nc1ccc(Oc2ccc(-c3c[nH]c(COc4ccccc4)n3)cc2)cc1F ?
193 to 195 °C

What about Cl.NS(=O)(=O)Nc1ccc(Oc2ccc(-c3c[nH]c(COc4ccccc4)n3)cc2)cc1F ?
185 to 187 °C

What about N#CN=C(N)Nc1ccc(Oc2ccc(-c3c[nH]c(COc4ccccc4)n3)cc2)cc1F ?
139 to 141 °C

What about NC(=S)Nc1ccc(Oc2ccc(-c3c[nH]c(COc4ccccc4)n3)cc2)cc1F ?
171 to 173 °C

What about O=C(Nc1ccccc1)Nc1ccc(Oc2ccc(-c3c[nH]c(COc4ccccc4)n3)cc2)cc1 ?
146 to 148 °C

Source listed as patent US8188133B2.
